Reported yeast fitness (ln) by item:
B1: tRNA (parent)
chain: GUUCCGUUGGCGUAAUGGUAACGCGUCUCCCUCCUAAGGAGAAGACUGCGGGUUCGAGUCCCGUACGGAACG

# Variants of: B1
# experiment.description: yeast fitness, log relative to wild type (ln ratio); higher = fitter; tRNA-Arg(CCU), competitive growth, 37 C, 1 M NaCl
quantity.kind: yeast fitness (ln)

In [3]: df
Out[3]:
                            primary_sequence  result_number
 0  GGUCCAUUGGCGUAAUGGUAACGCGUCUCCCUCCUAAGGAGAAGACUGCGGGUUCGAGUCCCGUAAGGAGUG [U2G G6A C66A A70G C71U]          -0.17
 1  AUUCCAUUGGCGUAAUGGUAACGCGUCUCCCUCCUAAGGAGACGAUUGCGGGUUCGAGUCCCGUACGGAAUG [G1A G6A A43C C46U C71U]         -0.145
 2  GUUCCUUUGGCGUAAUGGUAACGCGUUUCCCUCCUAAGGAGAAGAUUGCGGGUUCGAGUCCCGUACGGAAUG [G6U C27U C46U C71U]         -0.205
 3  AUUCCAUUGGCGUAAUGGUAACGCGUCUCCCUCCUAAGGAGAAGAUUGCGGGUUCGAGUCCCGUAUGGGUUG [G1A G6A C46U C66U A69G A70U C71U]         -0.363
 4  GGUCCUUUGGCGUAAUGGUAACGCGUUUCCCUCCUAAGGAGAAGACUGCGGGUUCGAGUCCCGUACGGAGCG [U2G G6U C27U A70G]         -0.211
 5  GUUCCUUUGGCGUAAUGGUAACGCGUUUCCCUCCUAAGGAGAAGACUGCGGGUUCGAGUCCCGUAUGGAAUG [G6U C27U C66U C71U]         -0.256
 6  GUUCCAUUGGCGUAAUGGUAACGCGUCUCCCUCCUAAGGAGAAGAUUGCGGGUUCGAGUCCCGUACGGGUUG [G6A C46U A69G A70U C71U]         -0.218
 7  AUUCCGUUGGCGUAAUGGUAACGCGUCUCCCUCCUAAGGAGAAGAUUGCGGGUUCGAGUCCCGUACGGGGUG [G1A C46U A69G A70G C71U]        -0.0298
 8  GCUCCUUUGGCGUAAUGGUAACGCGUCUCCCUCCUAAGGAGACGACUGCGGGUUCGAGUCCCGUACGGGAUG [U2C G6U A43C A69G C71U]         -0.255
 9  AGUCCAUUGGCGUAAUGGUAACGCGUCUCCCUCCUAAGGAGACGACUGCGGGUUCGAGUCCCGUAUGGAUCG [G1A U2G G6A A43C C66U A70U]         -0.434
10  GGUCCUUUGGCGUAAUGGUAACGCGUCUCCCUCCUAAGGAGACGAUUGCGGGUUCGAGUCCCGUAUGGGAUG [U2G G6U A43C C46U C66U A69G C71U]         -0.487
11  GGUCCGUUGGCGUAAUGGUAACGCGUCUCCCUCCUAAGGAGAAGACUGCGGGUUCGAGUCCCGUACGGGACG [U2G A69G]         -0.112
12  AGUCCGUUGGCGUAAUGGUAACGCGUCUCCCUCCUAAGGAGACGAUUGCGGGUUCGAGUCCCGUAAGGGAUG [G1A U2G A43C C46U C66A A69G C71U]         -0.335
13  AGUCCGUUGGCGUAAUGGUAACGCGUUUCCCUCCUAAGGAGAAGACUGCGGGUUCGAGUCCCGUAAGGGUCG [G1A U2G C27U C66A A69G A70U]         -0.187
14  AGUCCGUUGGCGUAAUGGUAACGCGUCUCCCUCCUAAGGAGAAGAUUGCGGGUUCGAGUCCCGUAAGGAUCG [G1A U2G C46U C66A A70U]         -0.109
15  GUUCCAUUGGCGUAAUGGUAACGCGUUUCCCUCCUAAGGAGAAGAUUGCGGGUUCGAGUCCCGUACGGAAUG [G6A C27U C46U C71U]         -0.176
16  GGUCCAUUGGCGUAAUGGUAACGCGUUUCCCUCCUAAGGAGACGAUUGCGGGUUCGAGUCCCGUACGGAGUG [U2G G6A C27U A43C C46U A70G C71U]         -0.201
17  ACUCCAUUGGCGUAAUGGUAACGCGUUUCCCUCCUAAGGAGAAGAUUGCGGGUUCGAGUCCCGUAUGGGUCG [G1A U2C G6A C27U C46U C66U A69G A70U]        -0.0756
18  ACUCCGUUGGCGUAAUGGUAACGCGUCUCCCUCCUAAGGAGACGAUUGCGGGUUCGAGUCCCGUACGGAACG [G1A U2C A43C C46U]       -0.00932
19  ACUCCAUUGGCGUAAUGGUAACGCGUCUCCCUCCUAAGGAGACGAUUGCGGGUUCGAGUCCCGUAUGGAACG [G1A U2C G6A A43C C46U C66U]         -0.085
20  GCUCCGUUGGCGUAAUGGUAACGCGUCUCCCUCCUAAGGAGAAGACUGCGGGUUCGAGUCCCGUACGGGGUG [U2C A69G A70G C71U]        -0.0131
21  AUUCCGUUGGCGUAAUGGUAACGCGUUUCCCUCCUAAGGAGAAGACUGCGGGUUCGAGUCCCGUAAGGAACG [G1A C27U C66A]         -0.123
